Target: human CD38 (full length, on cells) (human, UniProt P28907 1-300)
Experiment: cell-based or functional assay
assayMetric: ADCC target lysis, max. % lysis (%)
Use % as the unit, but write only the number.

# count of solved cases: 4
aCD38-b-348-m4 (antibody, IgG1, V domains shown) VH: QLQLQESGPGLVKPSETLSLTCTVSGGSISSSDYYWGWIRQPPGKGLEWIGSIYYSGSTYYNPSLKSRVTISVDTSKNQFSLKLSSVTAADTAVYYCARGQYSSGWYAYPFDMWGQGTMVTVSS VL: EIVLTQSPGTLSLSPGERATLSCRASQSVRSSYLAWYQQKPGQAPRLLIYGASSRATGIPDRFSGSGSGTDFTLTISRLEPEDFAVYYCQQEGNVYTFGGGTKVEIK = 38
aCD38-b-348-m2 (antibody, IgG1, V domains shown) VH: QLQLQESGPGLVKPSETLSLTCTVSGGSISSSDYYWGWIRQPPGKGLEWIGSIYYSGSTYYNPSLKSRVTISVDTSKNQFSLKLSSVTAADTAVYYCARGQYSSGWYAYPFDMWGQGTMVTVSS VL: EIVLTQSPGTLSLSPGERATLSCRASQSVRSSYLAWYQQKPGQAPRLLIYGASSRATGIPDRFSGSGSGTDFTLTISRLEPEDFAVYYCQQDSNVYTFGGGTKVEIK = 44
aCD38-b-348-m1 (antibody, IgG1, V domains shown, also called aCD38-b-348-ml) VH: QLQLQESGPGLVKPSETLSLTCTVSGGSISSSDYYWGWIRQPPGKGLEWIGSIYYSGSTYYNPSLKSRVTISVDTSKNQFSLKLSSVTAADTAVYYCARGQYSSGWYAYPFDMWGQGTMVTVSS VL: EIVLTQSPGTLSLSPGERATLSCRASQSVRSSYLAWYQQKPGQAPRLLIYGASSRATGIPDRFSGSGSGTDFTLTISRLEPEDFAVYYCQQEANVYTFGGGTKVEIK = 38
aCD38-b-348-m3 (antibody, IgG1, V domains shown) VH: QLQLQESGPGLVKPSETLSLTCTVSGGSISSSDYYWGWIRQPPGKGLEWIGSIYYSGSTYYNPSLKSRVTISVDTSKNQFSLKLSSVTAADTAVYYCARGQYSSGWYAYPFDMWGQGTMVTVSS VL: EIVLTQSPGTLSLSPGERATLSCRASQSVRSSYLAWYQQKPGQAPRLLIYGASSRATGIPDRFSGSGSGTDFTLTISRLEPEDFAVYYCQQDANVYTFGGGTKVEIK = 39

Now examine the next entry.
The reported ADCC target lysis, max. % lysis of the binder aCD38-b-348 (human IgG1) (antibody, V domains shown, Human IgG1) VH: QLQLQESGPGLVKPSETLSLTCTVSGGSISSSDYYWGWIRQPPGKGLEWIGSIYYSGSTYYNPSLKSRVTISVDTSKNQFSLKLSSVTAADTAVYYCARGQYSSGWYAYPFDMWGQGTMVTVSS VL: EIVLTQSPGTLSLSPGERATLSCRASQSVRSSYLAWYQQKPGQAPRLLIYGASSRATGIPDRFSGSGSGTDFTLTISRLEPEDFAVYYCQQDGNVYTFGGGTKVEIK was 44
